Biological target: T1, recombinant BACE1 (BACE1 extracellular domain, R&D Systems Cat#931-AS) (UniProt P56817 22-457)
T1 construct: extracellular domain; also called BACE1 extracellular domain protein
T1 sequence (P56817 22-457): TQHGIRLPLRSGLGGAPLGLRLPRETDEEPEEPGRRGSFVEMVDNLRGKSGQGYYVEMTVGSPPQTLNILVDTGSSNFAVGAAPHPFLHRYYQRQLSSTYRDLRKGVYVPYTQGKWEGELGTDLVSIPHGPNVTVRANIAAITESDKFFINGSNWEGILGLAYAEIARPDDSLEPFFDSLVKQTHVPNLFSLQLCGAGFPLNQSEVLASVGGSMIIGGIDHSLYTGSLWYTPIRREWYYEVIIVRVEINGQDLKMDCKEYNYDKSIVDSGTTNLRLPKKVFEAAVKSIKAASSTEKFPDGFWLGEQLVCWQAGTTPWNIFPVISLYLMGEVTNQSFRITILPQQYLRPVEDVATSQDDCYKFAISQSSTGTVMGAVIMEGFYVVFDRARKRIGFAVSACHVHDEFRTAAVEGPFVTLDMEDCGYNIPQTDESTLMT
Experiment: SPR Biacore
VALUE_KIND: Kd (nM)
Write down the numeric answer in nM and omit the unit.

Enquiry: Which Kd value is on record for 2H8.32 (antibody, human IgG1, V domains shown, human IgG1/kappa; also called 2H8_HCvar2 + 2H8_LCvar6) VH: EVQLQQPGTELVRPGTSVKLSCKASGYTFTNYWMHWIKQRPGQGLEWIGMIDPSDTYTKFNQNFKGKATLTVDTSSSTAYMQLNSLTSEDSAVYYCARSGVAFPYWGQGTTVTVSS VL: DIQMTQSQKFMSKSVGDRVSVTCKASQNVGSNVAWYQQKSGQSPKSLIYSASHRYSGVPDRFTGSGSGTDFTLTISNVQSEDLADYFCQQYNSYPYTFGGGTRLEIK ?
Return: 11.4

Enquiry: Can you check 2H8.36 (antibody, human IgG1, V domains shown, human IgG1/kappa; also called 2H8_HCvar6 + 2H8_LCvar6) VH: EVQLQQSGAELVRPGTSVKLSCKASGYTFNNYWMHWVKQRPGQGLEWIGMIDPSDDDIKNNQKFKGKATLTVDTSSSTAYMQLISLTSEDSAVYYCARSGVALPYWGQGTLVTVSA VL: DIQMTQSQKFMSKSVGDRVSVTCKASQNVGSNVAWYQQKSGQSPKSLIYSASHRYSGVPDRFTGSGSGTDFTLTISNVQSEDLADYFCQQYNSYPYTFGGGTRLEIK next?
Return: 23.5

Enquiry: Can you check 2H8.07 (antibody, human IgG1, V domains shown, human IgG1/kappa; also called 2H8_HC + 2H8_LCvar2) VH: EVQLQQSGPELVKPGASVKLSCKASGYTFTNFWIHWLKQRPGQGLEWIGMIDPSDSYTKYNQKFKAKATLTVDTSSSTTYMHLSSLTSEDSAVYYCARSGVAFPYWGQRTLVTVSA VL: DIVMTQSQKFMSTSVGDRVSVTCKASQNVGTNVAWYQQKPGQSPKALIYSASHRYSGVPDRFTGSGSGTDFTLTISNVQSEDLAEYFCQQYNSYMYTFGGGTKLEIK next?
Return: 20
